# testSystem: Small ubiquitin-related modifier 1 (Homo sapiens)
# Sequence (P63165 whole entry): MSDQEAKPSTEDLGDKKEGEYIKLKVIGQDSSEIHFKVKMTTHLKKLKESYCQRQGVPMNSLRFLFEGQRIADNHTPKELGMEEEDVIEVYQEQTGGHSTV
# runDescription: SUMO1 protein interaction blockers, potency – biochemical, fluorescence polarization, uHTS hits, dose response (AID 624382)
# Assay type: functional
# conditionSummary: read-out: IC50_Mean
The source made the active and inactive calls.
Outcomes: 1 (yes) = active, 0 (no) = inactive

- compound: "CCC(CO)Oc1cc(NC(=O)c2ccc(N)cc2)c2ncn(C(C)C)c2c1 (centres undefined)"
  assignedLabel: "0 (no)"
- compound: "COc1ccc(OC)c(-c2csc(NC(=O)Cn3[nH]c(=O)c4ccccc4c3=O)n2)c1"
  assignedLabel: "0 (no)"
- compound: "CC(=O)c1ccc2c(c1)C1C=CCC1C(C(=O)O)N2 (centres undefined)"
  assignedLabel: "1 (yes)"
- compound: "CCOc1ccc(NC(=O)c2cccc(-n3cccc3)c2)cc1S(=O)(=O)N1CCOCC1"
  assignedLabel: "0 (no)"

====

Below, each entry is listed with its recorded IC50.
# testSystem: Polyadenylate-binding protein 1 (Homo sapiens)
# Sequence (P11940 whole entry, the tested form may be a part): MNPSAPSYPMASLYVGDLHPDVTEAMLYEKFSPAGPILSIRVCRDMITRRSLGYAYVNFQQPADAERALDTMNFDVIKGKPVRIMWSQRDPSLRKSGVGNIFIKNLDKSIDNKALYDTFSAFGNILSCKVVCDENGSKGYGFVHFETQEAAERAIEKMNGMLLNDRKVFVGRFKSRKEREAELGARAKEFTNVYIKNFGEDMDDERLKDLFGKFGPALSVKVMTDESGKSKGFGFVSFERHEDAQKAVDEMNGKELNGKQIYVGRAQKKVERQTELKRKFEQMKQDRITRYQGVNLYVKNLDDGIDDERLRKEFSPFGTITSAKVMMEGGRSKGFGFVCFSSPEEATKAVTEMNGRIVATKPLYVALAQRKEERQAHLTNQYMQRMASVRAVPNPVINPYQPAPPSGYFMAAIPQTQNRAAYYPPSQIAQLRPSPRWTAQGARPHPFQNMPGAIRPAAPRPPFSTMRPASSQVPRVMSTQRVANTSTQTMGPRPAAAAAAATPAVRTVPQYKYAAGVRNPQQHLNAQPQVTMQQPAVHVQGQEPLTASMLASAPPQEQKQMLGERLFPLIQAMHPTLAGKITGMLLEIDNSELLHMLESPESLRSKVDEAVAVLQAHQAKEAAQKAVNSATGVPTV
# runDescription: MLLE domain peptide-binding blockers, IC50 – biochemical, fluorescence polarization, FITC-PAM2 peptide, dose response (AID 602259)
# Format: functional
# conditionSummary: read-out: IC50_Mean
Activity calls are given as the source filed them.

- molecule: "Oc1c2ccccc2c2c3c(cccc13)N=N2 [SP-600125]"
  IC50: "30.9 µM (inactive)"
- molecule: "COc1ccc(S(=O)(=O)N(C(=O)C(C)C)c2ccc3oc(=O)sc3c2)cc1"
  IC50: "> 66 µM (inactive)"
- molecule: "Cc1ccc(N2C(=O)C3C4C=CC(CN=C(S)Nc5cccc(Cl)c5)(O4)C3C2=O)cc1 (centres undefined)"
  IC50: "> 66 µM (inactive)"
- molecule: "Cc1c(O)ccc2cc(S(=O)(=O)c3ccccc3)c(=O)oc12"
  IC50: "46.7 µM (inactive)"
- molecule: "Cc1ccc(C(=O)NC(=S)Nc2ccc(N3CCN(C(=O)c4ccco4)CC3)cc2)cc1"
  IC50: "> 66 µM (inactive)"
- molecule: "CN(C)CCCN1C(=O)c2cccc3c(Br)ccc(c23)C1=O"
  IC50: "29.3 µM (inactive)"
- molecule: "O=C1c2ccccc2C(=O)N1CC1=CCS(=O)(=O)C1"
  IC50: "> 66 µM (inactive)"
- molecule: "Cn1nc(C(C)(C)C)cc1C(=O)Sc1cccc(Br)c1"
  IC50: "> 66 µM (inactive)"
- molecule: "Oc1ccc(Br)cc1/C=N/c1cccn2cc(-c3ccccc3)nc12"
  IC50: "> 66 µM (inactive)"

====

Below, each entry is listed with its recorded Ki.
# testSystem: Vascular endothelial growth factor receptor 2 (Homo sapiens)
# Sequence (P35968 whole entry): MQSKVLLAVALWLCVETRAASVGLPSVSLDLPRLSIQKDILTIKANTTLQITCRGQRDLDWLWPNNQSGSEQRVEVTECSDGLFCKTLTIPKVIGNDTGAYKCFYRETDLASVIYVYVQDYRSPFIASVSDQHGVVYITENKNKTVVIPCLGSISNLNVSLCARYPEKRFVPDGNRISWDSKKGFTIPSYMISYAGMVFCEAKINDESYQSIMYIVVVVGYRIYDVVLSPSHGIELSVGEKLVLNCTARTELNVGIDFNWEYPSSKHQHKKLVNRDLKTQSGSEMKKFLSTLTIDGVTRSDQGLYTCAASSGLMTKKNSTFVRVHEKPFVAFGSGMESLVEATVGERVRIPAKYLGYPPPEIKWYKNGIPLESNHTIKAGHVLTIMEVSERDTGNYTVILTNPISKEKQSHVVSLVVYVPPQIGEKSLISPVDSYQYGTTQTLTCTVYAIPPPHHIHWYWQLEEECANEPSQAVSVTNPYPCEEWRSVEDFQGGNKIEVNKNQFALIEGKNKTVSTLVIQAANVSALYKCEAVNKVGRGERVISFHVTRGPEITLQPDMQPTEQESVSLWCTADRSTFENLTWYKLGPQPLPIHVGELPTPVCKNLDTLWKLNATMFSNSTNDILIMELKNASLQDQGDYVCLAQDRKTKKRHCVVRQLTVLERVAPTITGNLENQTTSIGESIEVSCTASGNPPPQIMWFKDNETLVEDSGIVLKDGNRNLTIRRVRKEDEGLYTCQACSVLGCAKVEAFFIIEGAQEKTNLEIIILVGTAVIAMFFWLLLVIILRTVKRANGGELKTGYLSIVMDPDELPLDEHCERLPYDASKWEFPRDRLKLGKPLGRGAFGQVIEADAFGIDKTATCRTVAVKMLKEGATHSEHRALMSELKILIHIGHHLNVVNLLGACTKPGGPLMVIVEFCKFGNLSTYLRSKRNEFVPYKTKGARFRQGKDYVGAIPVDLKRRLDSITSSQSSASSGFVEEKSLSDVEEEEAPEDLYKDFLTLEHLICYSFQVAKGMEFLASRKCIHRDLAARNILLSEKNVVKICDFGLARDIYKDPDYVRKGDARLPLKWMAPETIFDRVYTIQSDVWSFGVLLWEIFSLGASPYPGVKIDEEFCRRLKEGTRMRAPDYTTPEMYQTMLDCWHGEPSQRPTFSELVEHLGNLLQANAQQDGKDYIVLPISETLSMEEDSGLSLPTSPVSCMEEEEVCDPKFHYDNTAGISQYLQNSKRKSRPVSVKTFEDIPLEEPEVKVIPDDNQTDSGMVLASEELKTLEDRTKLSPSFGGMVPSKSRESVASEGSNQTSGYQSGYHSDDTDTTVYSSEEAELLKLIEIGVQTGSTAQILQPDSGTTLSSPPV
# Format: functional
Active and inactive are the calls of the source.
metricName: Ki

- smilesData: "CCCCN1CCN(c2ccc(-c3nc4c(C(N)=O)cccc4[nH]3)cc2)CC1"
  metricName: "Ki"
  result: "> 5.01 µM (inactive)"
- smilesData: "Oc1c2ccccc2c2c3c(cccc13)N=N2"
  metricName: "Ki"
  result: "0.631 µM (active)"
- smilesData: "NC(=NO)c1ccccc1S(=O)(=O)Nc1ccc2c(c1)C(=NO)c1ccccc1-2"
  metricName: "Ki"
  result: "> 5.01 µM (inactive)"
- smilesData: "Cc1cccc(-c2cccc3onc(N)c23)c1"
  metricName: "Ki"
  result: "100 µM (active)"

====

# testSystem: 26S proteasome non-ATPase regulatory subunit 14 (Homo sapiens, UniProt O00487)
# Sequence (O00487 whole entry): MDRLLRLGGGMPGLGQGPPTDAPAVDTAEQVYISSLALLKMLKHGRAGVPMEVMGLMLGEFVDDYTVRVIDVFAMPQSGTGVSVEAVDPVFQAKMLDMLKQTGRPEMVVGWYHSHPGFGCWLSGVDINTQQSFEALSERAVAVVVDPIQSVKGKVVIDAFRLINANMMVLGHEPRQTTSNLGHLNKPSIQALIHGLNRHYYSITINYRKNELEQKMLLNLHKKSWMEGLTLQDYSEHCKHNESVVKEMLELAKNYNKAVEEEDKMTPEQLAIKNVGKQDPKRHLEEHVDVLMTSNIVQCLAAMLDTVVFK
# runDescription: inhibition of proteasome subunit RPN11 – biochemical, fluorescence polarization, uHTS hits, confirmation (AID 602368)
# Format: functional
Active and inactive are the calls of the source.
Outcomes: 1 for active, -1 for inactive

- compound: "COc1cc(CN2c3ccccc3C(=O)CS2(=O)=O)cc(OC)c1"
  testSystem: "26S proteasome non-ATPase regulatory subunit 14 (Homo sapiens, UniProt O00487)"
  assignedLabel: -1
- compound: "C=CCN1C(=O)/C(=C\\Nc2cccc([N+](=O)[O-])c2)C(=O)N(CCCC)C1=O"
  testSystem: "26S proteasome non-ATPase regulatory subunit 14 (Homo sapiens, UniProt O00487)"
  assignedLabel: 1
- compound: "CCC(CO)Oc1cc(NC(=O)c2ccc(N)cc2)c2ncn(C(C)C)c2c1 (configuration not stated)"
  testSystem: "26S proteasome non-ATPase regulatory subunit 14 (Homo sapiens, UniProt O00487)"
  assignedLabel: 1
- compound: "Nc1ccc(/C=C/C(=O)c2ccco2)cc1"
  testSystem: "26S proteasome non-ATPase regulatory subunit 14 (Homo sapiens, UniProt O00487)"
  assignedLabel: 1
- compound: "Cc1c(NC(=O)c2cccc(-c3cc4ccccc4oc3=O)c2)cccc1-c1nc2ncccc2o1"
  testSystem: "26S proteasome non-ATPase regulatory subunit 14 (Homo sapiens, UniProt O00487)"
  assignedLabel: 1
- compound: "C=CCCC(=O)N1C[C@H]2CON(C)[C@H]2C[C@H]1c1ccc(N2CCCCC2)cc1"
  testSystem: "26S proteasome non-ATPase regulatory subunit 14 (Homo sapiens, UniProt O00487)"
  assignedLabel: 1
- compound: "COc1ccc(NC(=O)Cn2c(-c3ccc(OC)cc3)cn(-c3ccc(C)cc3)c2=O)cc1"
  testSystem: "26S proteasome non-ATPase regulatory subunit 14 (Homo sapiens, UniProt O00487)"
  assignedLabel: 1

====

# testSystem: UniProt:G5EF15
# Sequence (G5EF15 whole entry, the tested form may be a part): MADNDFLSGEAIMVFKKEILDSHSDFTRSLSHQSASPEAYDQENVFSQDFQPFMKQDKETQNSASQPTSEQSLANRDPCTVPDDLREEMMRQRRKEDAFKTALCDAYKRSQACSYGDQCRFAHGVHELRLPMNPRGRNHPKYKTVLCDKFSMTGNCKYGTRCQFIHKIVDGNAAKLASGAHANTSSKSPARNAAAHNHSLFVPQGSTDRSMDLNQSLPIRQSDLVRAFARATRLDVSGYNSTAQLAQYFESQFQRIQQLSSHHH
# runDescription: disruptors of C. elegans POS-1 RNA interaction – biochemical, fluorescence polarization, dose response (AID 1964);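 also: purified POS-1 fused to maltose binding protein made in E. coli; potency of compounds blocking POS-1 binding to fluorescent RNA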
Calls of active or inactive are those of the source.

- compound: "Cc1nc2cc(N)ccc2n1C1CCCCC1"
  EC50: "> 300 µM (not active)"
- compound: "COC(=O)c1cc(C(=O)OC)cc(-n2c(C)cc(C(=O)CC#N)c2C)c1"
  EC50: "> 300 µM (not active)"
- compound: "Cc1ccc(-c2nc3cc(C(N)=O)ccc3c(O)c2O)cc1"
  EC50: "7.27 µM (active)"
- compound: "Cc1ccc(S(=O)(=O)CCSc2nc(C)cc(C(F)(F)F)c2C#N)cc1"
  EC50: "> 300 µM (not active)"
- compound: "CCOC(=O)c1c(NC(=O)CC2Nc3ccccc3NC2=O)sc(C)c1C (stereo not drawn)"
  EC50: "> 300 µM (not active)"
- compound: "O=C1NC(=O)N(Cc2ccccc2Cl)C(=O)/C1=C/Nc1ccc(F)cc1"
  EC50: "> 300 µM (not active)"
- compound: "CN(C)CCCN1C(=O)c2cccc3c(Br)ccc(c23)C1=O"
  EC50: "22.1 µM (active)"
- compound: "CC[n+]1c(/C=C/c2ccc(N(C)C)cc2)ccc2ccccc21"
  EC50: "> 300 µM (not active)"
- compound: "CCc1c(C)nc(SCC(=O)c2cccs2)c(C#N)c1C"
  EC50: "11.5 µM (inconclusive)"
- compound: "COCCNC(=O)CCC(=O)NNc1nc2ccccc2c2nc(C)nn12"
  EC50: "118 µM (active)"
- compound: "Cc1cc(C(=O)O)ccc1-n1c(C)ccc1C"
  EC50: "5.94 µM (active)"
- compound: "N=c1c(C(=O)NC2CCCCC2)cc2c(=O)n3ccccc3nc2n1Cc1ccc(F)cc1"
  EC50: "> 300 µM (not active)"
- compound: "N=c1c(C(=O)NC2CCCCC2)cc2c(=O)n3ccccc3nc2n1Cc1cccnc1"
  EC50: "> 300 µM (not active)"

====

# testSystem: Protein RecA (Mycobacterium tuberculosis, UniProt P9WHJ3)
# runDescription: Fluorescence Cell-Free Homogeneous Dose Retest to Identify Inhibitors of RecA-Intein Splicing Activity. [Related pubchem assays (depositor defined):AID2097, AID2223, AID489010, AID492950]
# Assay type: functional
Activity calls are given as the source filed them.

- compound: "COc1ccc(CNc2ccc3c[nH]nc3c2)c(OC)c1OC"
  EC50: "0.797 µM (active)"
- compound: "COC(=O)c1ccccc1-c1ccc(C(c2c(C)n[nH]c2O)c2c(C)n[nH]c2O)o1"
  EC50: "0.214 µM (active)"
- compound: "O=C1c2ccccc2C(=O)c2c1ncn2-c1ccccc1"
  EC50: "229 µM (active)"
- compound: "O=C(CCl)N1c2ccccc2OCC1c1ccccc1 (stereo not drawn)"
  EC50: "0.606 µM (active)"
- compound: "CS/C(=C/[N+](=O)[O-])Nc1cccc2c1C(C)CC2(C)C (stereo not drawn)"
  EC50: "5.21 µM (active)"
- compound: "CC(NC(=O)Cn1ncc(Cl)c(Cl)c1=O)C12CC3CC(CC(C3)C1)C2 (stereo not drawn)"
  EC50: "0.047 µM (active)"
- compound: "O=C1c2ccccc2C(=O)C12OC2c1ccc(Cl)cc1 (stereo not drawn)"
  EC50: "22.2 µM (inconclusive)"
- compound: "C=COC(=O)CSc1snc(SCC(=O)OC)c1C#N"
  EC50: "40.1 µM (active)"
- compound: "O=C1CC/[N+](=C\\c2ccc(Cl)c(Cl)c2)[N-]1"
  EC50: "8.98 µM (active)"
- compound: "CC1=NN(c2ccc(Cl)c(C(=O)O)c2)C(=O)/C1=C\\c1ccc(-c2ccc(C(=O)O)cc2)o1"
  EC50: "0.4 µM (active)"
- compound: "Cn1nc(C(C)(C)C)cc1C(=O)Sc1cccc(Br)c1"
  EC50: "37.1 µM (inconclusive)"
- compound: "COc1ccc(C(C[N+](=O)[O-])c2c(C)[nH]n(-c3ccccc3)c2=O)cc1 (stereo not drawn)"
  EC50: "3.3 µM (active)"
- compound: "CC1CCCN(C2=C(Cl)C(=O)N(c3cccc(Cl)c3)C2=O)C1 (stereo not drawn)"
  EC50: "2.86 µM (active)"
